assaySummary: Inhibition of IDH2 R172K mutant in human HEK293 cells incubated for 72 hrs by measuring 2-HG production by fluorescence based analysis
Type: functional, cell-based
testSettings: HEK293, 72 h
measuredProperty: pIC50
One number for each entry, as −log10 of the molar value.

C[C@@H](Nc1nc(N[C@H](C)C(F)(F)F)nc(C2=C(F)[C@H](O)C(F)(F)CC2)n1)C(F)(F)F	6.37

Proceeding to the next molecule to report its pIC50.
For CC(C)(O)CNc1nc(Nc2ccnc(C(F)(F)F)c2)nc(-c2cccc(C(F)(F)F)n2)n1 the molecule record lists pIC50 as 5.29

----------
assaySummary: Clearance in male Sprague-Dawley rat at 1 mg/kg, iv measured after 24 hrs by LC/MS/MS analysis
Assay type: ADME, organism-based
testSettings: in vivo
measuredProperty: clearance (mL/min/kg)
Answers are plain numbers, in mL/min/kg.

For C[C@@H](Nc1nc(N[C@H](C)C(F)(F)F)nc(C2=C(F)[C@H](O)C(F)(F)CC2)n1)C(F)(F)F [RANOSIDENIB] the molecule record lists clearance as 0.8

Numbers sourced from ChEMBL document CHEMBL6103672.
